# System: LU99A
# ASSAY_SUMMARY: relative viability (nuclei count vs DMSO), 5 days (fraction); higher = more cells survive
# CONDITION_SUMMARY: first compound 0.253 µM
Mark each entry yes if its relative viability sits below 0.3, and no for all others.

State whether 0.3 exceeds relative viability recorded for O=c1[nH]c2ccccc2n1C1CCN(CCCC(c2ccc(F)cc2)c2ccc(F)cc2)CC1 [Pimozide] + C[C@@H](Oc1cc(-c2cnn(C3CCNCC3)c2)cnc1N)c1c(Cl)ccc(F)c1Cl [Crizotinib] (partner 1 µM) . no

Another molecule: Cc1cnc(-c2cnc(NCCNc3ccc(C#N)cn3)nc2-c2ccc(Cl)cc2Cl)[nH]1 + C[C@]1(O)C[C@@H](c2nc(-c3ccc4ccc(-c5ccccc5)nc4c3)c3c(N)nccn32)C1 [Linsitinib] (partner 1 µM) no

Another molecule: O=c1[nH]c2ccccc2n1C1CCN(CCCC(c2ccc(F)cc2)c2ccc(F)cc2)CC1 [Pimozide] + COc1cccc2cc(-c3nc([C@H]4CC[C@H](C(=O)O)CC4)n4ncnc(N)c34)[nH]c12 [OSI-027] (partner 0.5 µM) yes

Another molecule: O=c1[nH]c2ccccc2n1C1CCN(CCCC(c2ccc(F)cc2)c2ccc(F)cc2)CC1 [Pimozide] + COc1cc2c(Oc3ccc(NC(=O)C4(C(=O)Nc5ccc(F)cc5)CC4)cc3F)ccnc2cc1OCCCN1CCOCC1 [Foretinib] (partner 0.25 µM) no

Another molecule: Cc1cnc(-c2cnc(NCCNc3ccc(C#N)cn3)nc2-c2ccc(Cl)cc2Cl)[nH]1 + CS(=O)(=O)N1CCN(Cc2cc3nc(-c4cccc5[nH]ncc45)nc(N4CCOCC4)c3s2)CC1 [Pictilisib] (partner 1 µM) no
